Known Modal MIC90 of a selection of compounds
# System: C. glabrata NCPF 8018
# method_description: microbe, parasite or virus in culture
# Type: cell-based
# conditions: C. glabrata NCPF 8018; 90% growth inhibition; RPMI 1640 + 2% glucose, 37 °C, 20 h
Where a SMILES comes first, the peptide text is derived from it.

compound	reported_value
CC[C@H](C)[C@H](NC(=O)[C@H](CCCCN)NC(=O)[C@H](CC(C)C)NC(=O)[C@H](C)NC(=O)[C@H](C)NC(=O)[C@H](CCCCN)NC(=O)[C@H](CC(C)C)NC(=O)[C@H](C)NC(=O)[C@@H](N)CCCCN)C(=O)NCC(=O)N[C@@H](C)C(=O)N[C@@H](CC(N)=O)C(N)=O [CPF-P3-12a] (H-KALKAALKIGAN-NH2)	> 128 µg/mL

# ---- query compound ----
The observed Modal MIC90 for CC(C)C[C@H](NC(=O)[C@H](CCCCN)NC(=O)[C@H](CO)NC(=O)[C@H](CCCCN)NC(=O)[C@@H](N)Cc1c[nH]c2ccccc12)C(=O)N[C@@H](C)C(=O)N[C@@H](CCCCN)C(=O)N[C@@H](CCCCN)C(N)=O [PS-PB-8a] (H-WKSKLAKK-NH2) when tested with C. glabrata NCPF 8018 stands at > 128 µg/mL

Each recorded value in this set is attributed to paper PMC11191095.
